# System: A549 NSCLC
# Assay notes: NCI tumour cell line growth inhibition, 48 h
Provide the reported TGI of each item.

The cases that follow already have their TGI on record.
Looking up COc1cc(/C=C/C(=O)/C=C/c2cc3ccc(Cl)cc3n(Cc3ccccc3)c2=O)ccc1O , I see its TGI listed as 5.03 µM

In plain terms, CCCCCCCCCCCCCCCCc1c(C(=O)OC)nc(NN)[nH]c1=O has a documented TGI of > 50 µM

Noted for CN(C)CCn1cnc2ncccc2c1=O : its TGI reads > 100 µM

The recorded TGI for CC1C(=O)c2cc3c(cc2CCN(C)Cc2c1ccc1c2OCO1)OCO3 (configuration not stated) is > 75 µg/mL

Record O=C(CO[N+](=O)[O-])OC/C=C/c1ccccc1 . Reported TGI: > 100 µM

Kindly give each listed record's TGI.
1. CCOC(=O)c1c(-c2cccc(Cl)c2)c(C(=O)OC)c(C)c2sc(C=O)nc12
2. NC1=NC(=O)/C(=C/c2ccc3ncccc3c2)S1

["> 100 µM", "> 25 µM"]

----------
# Tested on: U251 CNS
# Assay notes: NCI tumour cell line growth inhibition, 48 h
Quantity: TGI

compound CCN(CC)c1ccc2cc(C(=O)NCc3ccccc3)c(=N)oc2c1 , TGI observed: > 100 µM

Give one value of TGI per listed compound.
1. COc1cc(C(C[N+](=O)[O-])SC(C)=O)ccc1OCc1ccccc1 (stereo not given)
2. O=C(CC(c1ccccc1)C1C(=O)NC(=S)NC1=O)c1ccc([N+](=O)[O-])cc1 (stereo not given)
3. C[C@@H]1O[C@]2(O)[C@@H]3CCCN3S(=O)(=O)CCN2C1=O
4. CCN(CC)CCN1C(=O)C2C3C(=O)CC(C)(CC3C)C2C1=O (stereo not given)
5. O=C1C2c3[nH]c4ccccc4c3C3CCCCCC3C2C(=O)N1c1ccccc1 (stereo not given)
6. Cc1cc(C)c2c(c1)CC1(Cc3ccc(C)c(C)c3C1=O)C2=O (stereo not given)

1. 22.7 µM
2. > 100 µM
3. > 100 µM
4. > 100 µM
5. > 45.6 µM
6. > 100 µM

Provide each entry's TGI from the list below.
1. CC1(C)S[C@H](CN)N[C@H]1C(=O)OC(c1ccccc1)c1ccccc1
2. C/C(=N\n1c(O)c(C#N)cc(C#N)c1=O)c1ccncc1
3. COc1ccc(-c2[nH]nc(N)c2-c2cc(OC)c3c(c2)OCO3)cc1

["> 100 µM", "> 100 µM", "> 100 µM"]

----------
I'd appreciate it if you could supply TGI values for the items below.
# System: SK-OV-3 ovarian
# Assay notes: NCI tumour cell line growth inhibition, 48 h

Kindly note: SK-OV-3 ovarian, CC(=O)C1(C)CC(C#N)(C#N)C(C#N)=C1N (configuration not stated) , TGI value reported: > 100 µM

// TGI (SK-OV-3 ovarian) for C/C(=N\NC(=S)NC(CCC(=O)O)C(=O)O)c1cnccn1 (configuration not stated) = > 100 µM

Hi team, please reply with TGI for each item in this list.
1. ClCc1ccc(Cn2cnc3c(Cl)ncnc32)cc1
2. CCc1cc2c(c3c1CCCC3)CC1(Cc3ccc(C(=O)OC)cc3C1)C2 (configuration not stated)

1. 47.6 µM
2. > 100 µM

# map each molecule to its TGI
1. COc1ccc(C(=O)O[C@H]2[C@H](O[C@H]3[C@@H](O)COC(O[C@H]4C[C@H]5[C@@H]6CC=C7C[C@@H](O)CC[C@]7(C)[C@H]6CC[C@]5(C)[C@H]4[C@H](C)C(=O)CCC(C)C)[C@@H]3OC(C)=O)OC[C@@H](O)[C@@H]2O)c(C)c1 (some centres not stated)
2. C/C(=N\n1c(O)c(C#N)cc(C#N)c1=O)c1ccncc1
3. CCCCCCCCCC(CCCC(O)CC(=O)O)OC1OC(COC2OC(C)C(OC(C)=O)C(O)C2O)C(O)C(O)C1OC1OC(CO)C(O)C(O)C1OC1OC(C)C(OC(=O)CC(C)C)C(O)C1O (configuration not stated)

9.5 µM
> 100 µM
> 35 µM

----------
# Test system: K-562 leukemia
# Assay notes: NCI tumour cell line growth inhibition, 48 h
Quantity: GI50

For the 8 molecules below, give their GI50 values.
1. C/C(=N\n1c(O)c(C#N)cc(C#N)c1=O)c1ccncc1
2. CC1C(=O)c2cc3c(cc2CCN(C)Cc2c1ccc1c2OCO1)OCO3 (centres undefined)
3. Nc1nnnc2nc[nH]c12
4. CCCCCC[C@@H](C)Nc1nc2ccccc2c2occc12
5. COc1ccc2nc3cc([N+](=O)[O-])ccc3c(NNc3ccccc3)c2c1
6. CN1CCN(c2ccc(NC(=O)c3cncnc3Nc3ccc(OCc4cccc(F)c4)c(Cl)c3)cc2)CC1
7. CCN(CC)CCN1C(=O)C2C3C(=O)CC(C)(CC3C)C2C1=O (centres undefined)
8. COc1ccc(-c2nn(-c3ccc(NC(=O)c4cc(Cl)cc(Cl)c4)cc3)cc2-c2ccncc2)cc1Cl

1. > 100 µM
2. 24.7 mg/L
3. 3.72 µM
4. 19.9 µM
5. 3.49 µM
6. 0.799 µM
7. > 100 µM
8. 1.86 µM

Entry ClCc1ccc(Cn2cnc3c(Cl)ncnc32)cc1 , GI50 reported as 15.4 µM

----------
Provide the recorded TGI for the entries that follow.
# System: SF-295 CNS
# Assay notes: NCI tumour cell line growth inhibition, 48 h

Guide cases for TGI, answers given:
The recorded TGI for entry Cc1oc(N)c(S(=O)(=O)c2cc3ccccc3n(O)c2=N)c1C equals > 100 µM

Memo: CCOC(=O)N(C)C(=C(F)F)C(F)(F)F , reported TGI: > 100 µM

Switching to the query record.
The measured TGI associated with CCOC(=O)/C(C#N)=C1\SS/C(=C(/C#N)C(=O)OCC)S1 reads > 100 µM

----------
# Tested on: COLO 205 colon
# Assay notes: NCI tumour cell line growth inhibition, 48 h
I'd appreciate it if you could supply TGI values for the items below.

Batch request: TGI per item, same order as input.
1. CCN(CC)C(=S)SC1C(=O)NC(=O)NC1=O
2. O=c1cc(NNc2ccccc2F)[nH]c(=O)[nH]1
3. COc1ccc(Cn2cc3c(c2)-c2oncc2CC3)cc1OC

1: > 100 µM; 2: 33.8 µM; 3: 0.346 µM

// each listed compound needs a value for TGI
1. O=C1C2Cc3c(n(C(=O)c4ccccc4)c4ccccc34)CC2C(=O)N1c1ccc(Nc2ccc(N3C(=O)C4Cc5c(n(C(=O)c6ccccc6)c6ccccc56)CC4C3=O)cc2)cc1 (configuration not stated)
2. CCOc1ccc(/C=C(\Cl)c2ccc(OC)cc2)cc1
3. Cc1ccc(-c2nc3cc(Cl)c(Cl)cc3nc2C#N)cc1

1. > 100 µM
2. > 100 µM
3. > 100 µM

Field: TGI. Fill in for each record below.
1. CCCCCCCCCC(CCCC(O)CC(=O)O)OC1OC(COC2OC(C)C(OC(C)=O)C(O)C2O)C(O)C(O)C1OC1OC(CO)C(O)C(O)C1OC1OC(C)C(OC(=O)CC(C)C)C(O)C1O (configuration not stated)
2. COc1cc(C2c3cc4c(cc3[C@@H](Nc3ccc(Oc5ccccc5)cc3)C3COC(=O)[C@H]23)OCO4)cc(OC)c1O (some centres not stated)
3. COc1cc(/C=C/C(=O)N2CCC=CC2=O)cc(OC)c1OC
4. CCN(CC)c1ccc(C2NC(=O)c3ccccc3N2)cc1 (configuration not stated)

1: > 35 µM; 2: 13 µM; 3: 4.14 µM; 4: 4.51 µM

----------
# System: U251 CNS
# Assay notes: NCI tumour cell line growth inhibition, 48 h
Quantity: TGI

According to the records, this compound CC1CCC(=O)C(C(O)CC2CC(=O)N(c3ccccc3)C(=O)C2)C1 (configuration not stated) displays TGI of > 100 µM

Working through the 4 compounds below one at a time, give TGI for each.
1. COc1cccc(/C=N/[N-]C(N)=O)c1[O-].[Ni+2].[OH3+]
2. Cc1ccc(-c2nc(N3CCNCC3)c3oc(-c4ccccc4)nc3n2)cc1
3. N=c1ccc2nc(N)nn(O)c-2c1
4. Nc1nnnc2nc[nH]c12

0.816 µM
3.24 µM
> 100 µM
> 100 µM

For every item below, please supply its TGI.
1. Cc1cc(=O)n(-c2c(C)cccc2Cl)c(/C=C(\O)c2ccncc2)n1
2. O=C(N/C(=C\c1ccccc1Cl)c1nc2ccccc2[nH]1)c1ccccc1

["> 100 µM", "> 100 µM"]

----------
# Test system: MDA-MB-231 breast
# Assay notes: NCI tumour cell line growth inhibition, 48 h
Please go through the items and note down their TGI.

Quick one: give me TGI for each item below, same order please.
1. COC(=O)C1CC23C4=C(CCC41)CCC1CN4CC(C)C(CC(OC(C)=O)C12COC(C)=O)C43O (stereo unspecified)
2. O=C1c2cccnc2C(=O)c2c1c(C(=O)NCCn1ccnc1)c1ccccn21
3. Cc1cc(C)c2c(c1)CC1(Cc3ccc(C)c(C)c3C1=O)C2=O (stereo unspecified)

["> 100 µM", "> 100 µM", "> 100 µM"]

Go through the items and report each one's TGI.
1. COc1cc(C2SCC(=O)N2c2ccc(NC(C)=O)cc2)cc(OC)c1OC (stereo unspecified)
2. Cc1cc(S(=O)(=O)NC2=NCCN2Cc2ccccc2)c(S)cc1Cl
3. CCCCCCCCCC(CCCC(O)CC(=O)O)OC1OC(COC2OC(C)C(OC(C)=O)C(O)C2O)C(O)C(O)C1OC1OC(CO)C(O)C(O)C1OC1OC(C)C(OC(=O)CC(C)C)C(O)C1O (stereo unspecified)

1: > 100 µM; 2: > 100 µM; 3: > 35 µM
